// reported solubility per item
# procedureText: Solubility in water
# Format: physicochemical
# settings: hydrochloride

| compound | result |
| --- | --- |
| C[C@@H]1CC[C@H]2C(CN3CCN(CCO)CC3)=C(C(F)(F)F)O[C@@H]3OC4(C)CC[C@@H]1[C@]32OO4 [drawing 28] | > 50 mg/mL |

Attention now turns to another entry.
Note down solubility recorded for C[C@@H]1CC[C@H]2C(CN3CCOCC3)=C(C(F)(F)F)O[C@@H]3OC4(C)CC[C@@H]1[C@]32OO4
> 20 mg/mL
